Tested on: fecal bile acid (FBA)
Test: Rat gavage assay (fecal bile acid increase)
Type: in vivo
Details: dose 5 mg/kg/day
Provide the recorded Delta (micromoles fecal bile acid per day) for the entries that follow.

# query: Delta (micromoles fecal bile acid per day) of entry CCCCC1(CCCC)CS(=O)(=O)c2ccc(N(C)C)cc2[C@@H](c2ccc(OCCCCCN(CC)CC)cc2)[C@H]1O 45.2 micromoles fecal bile acid per day

# query: Delta (micromoles fecal bile acid per day) of entry CCCCC1(CCCC)CS(=O)(=O)c2ccc(N(C)C)cc2[C@@H](c2ccc(OCCCCCN(CC(=O)O)CC(=O)O)cc2)[C@H]1O 59.9 micromoles fecal bile acid per day

# query: Delta (micromoles fecal bile acid per day) of entry CCCCC1(CCCC)CS(=O)(=O)c2ccc(N(C)C)cc2[C@@H](c2ccc(OCc3ccc(C[n+]4ccccc4)cc3)cc2)[C@H]1O.[Cl-] 91.8 micromoles fecal bile acid per day

# query: Delta (micromoles fecal bile acid per day) of entry CCCCC1(CCCC)CS(=O)(=O)c2ccc(N(C)C)cc2[C@@H](c2ccc(OCCOCCC(C(=O)O)C(=O)O)cc2)[C@H]1O 36.2 micromoles fecal bile acid per day

# query: Delta (micromoles fecal bile acid per day) of entry CCCCC1(CCCC)CS(=O)(=O)c2ccc(N(C)C)cc2[C@@H](c2ccc(OCCCCC(=O)O)cc2)[C@H]1O 93.7 micromoles fecal bile acid per day

# query: Delta (micromoles fecal bile acid per day) of entry CCCCC1(CCCC)CS(=O)(=O)c2ccc(N(C)C)cc2[C@@H](c2ccc(OCCCCCC(C(=O)O)C(=O)O)cc2)[C@H]1O 52.3 micromoles fecal bile acid per day

---

Target: ACAT
Experiment: Acyl-CoA; cholesterol acyl transferase (ACAT), rat intestinal microsomes
Type: biochemical
Conditions: read-out: ACAT intestine IC(50)
experimental_endpoint: IC50
Please format your answer as a value with the unit trailing.

# query: IC50 of entry CCCC[C@]1(CC)CS(=O)(=O)c2cc(OC)ccc2[C@@H](c2ccccc2)[C@H]1O [Example 25] 8 µM

---

Molecular target: human IBAT (Homo sapiens)
Construct: expressed in transfected cells; host or cells: Baby hamster kidney (BHK) cells, clone H14
Sequence (Q12908 whole entry): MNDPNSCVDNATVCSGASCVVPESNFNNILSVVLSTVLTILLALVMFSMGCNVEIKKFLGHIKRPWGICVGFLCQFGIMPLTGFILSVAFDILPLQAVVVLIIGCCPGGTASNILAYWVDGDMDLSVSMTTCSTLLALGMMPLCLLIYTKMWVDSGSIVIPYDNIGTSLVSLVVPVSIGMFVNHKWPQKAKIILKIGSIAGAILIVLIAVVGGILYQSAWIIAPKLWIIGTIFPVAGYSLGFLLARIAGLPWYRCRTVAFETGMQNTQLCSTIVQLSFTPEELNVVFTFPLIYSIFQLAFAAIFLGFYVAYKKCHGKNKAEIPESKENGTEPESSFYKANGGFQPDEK
Assay: In vitro assay of IBAT-mediated uptake of [14C]-taurocholate (TC) in H14 cells
Type: cell-based
Details: read-out: Human TC IC50
Mark each entry rule met if its IC50 sits below 10 nM, and rule not met for all others.

Confirm or reject: IC50 of CCCCC1(CCCC)CS(=O)(=O)c2ccc(NC)cc2C(c2cccc(OCCOCCOCC[N+](C)(C)CCN(C)S(=O)(=O)c3ccccc3)c2)C1O (centres unmarked) lies strictly below 10 nM rule met

Confirm or reject: IC50 of CCCCC1(CCCC)CS(=O)(=O)c2ccc(N(C)C)cc2C(c2ccc(OCCCCCCCCCC[N+](C)(C)C)cc2)C1O (centres unmarked) lies strictly below 10 nM rule not met

Confirm or reject: IC50 of CCCC[C@]1(CC)CS(=O)(=O)c2ccc([N+](C)(C)C)cc2[C@@H](c2ccccc2)[C@H]1O lies strictly below 10 nM rule not met

Confirm or reject: IC50 of CCCCC1(CCCC)CS(=O)(=O)c2ccc(N(C)C)cc2C(c2ccc(OCCCCOCCCC[n+]3ccccc3)c(F)c2)C1O (centres unmarked) lies strictly below 10 nM rule met

Confirm or reject: IC50 of CCCCC1(CCCC)CS(=O)(=O)c2ccc(NC)cc2C(c2cccc(OCCOCCOCC[n+]3ccccc3CCN3CCCCC3)c2)C1O (centres unmarked) lies strictly below 10 nM rule met

Confirm or reject: IC50 of CCCCC1(CCCC)CS(=O)(=O)c2ccc(N(C)C)cc2C(c2ccc(OCCCCBr)c(F)c2)C1O (centres unmarked) lies strictly below 10 nM rule not met

Confirm or reject: IC50 of CCCCC1(CCCC)CS(=O)(=O)c2ccc(N(C)C)cc2C(c2cccc(OCCOCCOCC[N+](CC)(CC)CCNC(=O)c3ccccc3)c2)C1O (centres unmarked) lies strictly below 10 nM rule met

Confirm or reject: IC50 of CCCCC1(CCCC)CS(=O)(=O)c2cc(OC)ccc2C(c2ccccc2)C1O (centres unmarked) lies strictly below 10 nM rule not met

Confirm or reject: IC50 of CCCCC1(CCCC)CS(=O)(=O)c2ccc(N(C)C)cc2C(c2ccc[n+](C)c2)C1O (centres unmarked) lies strictly below 10 nM rule not met

Confirm or reject: IC50 of CCCCC1(CCCC)CS(=O)(=O)c2c(cccc2N(C)C)C(c2ccc(OC)cc2)C1O (centres unmarked) lies strictly below 10 nM rule not met

Confirm or reject: IC50 of CCCCC1(CCCC)CS(=O)(=O)c2ccc(N(C)C)cc2C(c2cccc(OCCOCCOCC[n+]3cccc4ccccc43)c2)C1O (centres unmarked) lies strictly below 10 nM rule met

Confirm or reject: IC50 of CCCCC1(CCCC)CS(=O)(=O)c2ccc(F)cc2C(c2ccc(F)cc2)C1O (centres unmarked) lies strictly below 10 nM rule not met

Confirm or reject: IC50 of CCCCC1(CCCC)CS(=O)(=O)c2ccc([N+](C)(C)C)cc2C(c2cccc(OC)c2)C1O (centres unmarked) lies strictly below 10 nM rule not met
